The measurements presented in this section are drawn from ChEMBL document CHEMBL4706625.

- EXPERIMENT_SUMMARY: Thiol-reactivity using La antigen containing reactive cysteine C245 at 0.5 mM incubated for 1 hr by MS analysis based ALARM MSPS analysis
- PARTICULARS: 500 µM
READOUT_TYPE: Activity

| COMPOUND | REPORTED |
| --- | --- |
| C=C1C(=O)N(c2ccc(C(F)(F)F)cc2)[C@@H]2C3=C(c4ccccc4)C(=O)CC3=C(C)CC[C@@H]12 (relative stereo) | Not Active |
| OC(Cn1cncn1)(Cn1cncn1)c1ccc(F)cc1F | Not Active |
| C=C1C(=O)O[C@H]2C3=C(c4ccccc4)C(=O)CC3=C(C)CC[C@H]12 | Active |
| CCN(CC)c1ccc2c(C)c(-c3ccc(N4C(=O)C=CC4=O)cc3)c(=O)oc2c1 | Active |

====

- EXPERIMENT_SUMMARY: Toxicity in African green monkey Vero cells assessed as reduction in cell viability incubated for 48 hrs by Alamar blue assay
- Assay type: cell-based, Chlorocebus sabaeus
READOUT_TYPE: IC50 at 48 h

| LINE_NOTATION | REPORTED |
| --- | --- |
| C=C1C(=O)N[C@@H]2C3=CC(=O)CC3=C(C)CC[C@@H]12 | > 200 µM |

====

- EXPERIMENT_SUMMARY: Thiol-reactivity using 13C-labeled La antigen containing reactive cysteine C245 at 400 uM at 37 degreeC for 90 mins in absence of DTT by 2D 1H-13C HMQC ALARM NMR spectroscopy
- Type: ADME
- PARTICULARS: 1.5 h
READOUT_TYPE: Activity

| COMPOUND | REPORTED |
| --- | --- |
| C=C1C(=O)O[C@H]2C3=C(c4ccccc4)C(=O)CC3=C(C)CC[C@H]12 | Active |
| C=C1C(=O)N(c2ccc(C(F)(F)F)cc2)[C@@H]2C3=C(c4ccccc4)C(=O)CC3=C(C)CC[C@@H]12 (relative stereo) | Not Active |
| OC(Cn1cncn1)(Cn1cncn1)c1ccc(F)cc1F [FLUCONAZOLE] | Not Active |
| CCN(CC)c1ccc2c(C)c(-c3ccc(N4C(=O)C=CC4=O)cc3)c(=O)oc2c1 | Active |
